tested-on: Muscarinic acetylcholine receptor M1 (Rattus norvegicus) (UniProt P08482)
Sequence (P08482 whole entry, looked up): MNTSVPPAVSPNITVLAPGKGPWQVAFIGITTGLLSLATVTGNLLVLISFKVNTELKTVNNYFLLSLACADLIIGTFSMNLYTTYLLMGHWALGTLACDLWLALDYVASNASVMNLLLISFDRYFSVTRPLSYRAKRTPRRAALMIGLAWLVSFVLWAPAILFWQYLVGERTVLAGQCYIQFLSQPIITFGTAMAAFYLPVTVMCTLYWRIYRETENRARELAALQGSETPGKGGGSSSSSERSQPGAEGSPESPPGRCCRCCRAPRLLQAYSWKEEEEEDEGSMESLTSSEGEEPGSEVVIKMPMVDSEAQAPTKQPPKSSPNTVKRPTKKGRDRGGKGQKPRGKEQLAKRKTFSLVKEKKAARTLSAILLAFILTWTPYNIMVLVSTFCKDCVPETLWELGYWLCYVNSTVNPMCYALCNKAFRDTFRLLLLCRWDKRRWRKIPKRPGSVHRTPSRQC
test-method-notes: qHTS Assay for Antagonists of Acetylcholine Muscarinic M1 Receptor: Kinetic Measurement of Intracellular Calcium Response (AID 943); further: nearly all actives have a fitted effect of over 75% in size
test-conditions: M1-expressing cells, kinetic intracellular calcium fluorescence; series mostly up to 35.3 µM
Results filed as inconclusive are left out. Active and inactive are the calls of the source. The call rests on the fitted dose curve; in most records, active means well fitted inhibition curve with a large enough effect; inconclusive means small, poorly fitted or top-dose-only effect; inactive means no such curve, though single readings can be large or run the other way.
Just give me one of these, please: t for active, f for inactive

COc1ccc(CCN)cc1O | f
COC(=O)c1cc2c(cn1)[nH]c1ccccc12 | f
CN(C(=O)Cc1ccc(Cl)c(Cl)c1)[C@@H](CN1CCCC1)c1cccc(OCC(=O)O)c1 | f
OC1(c2ccc(Cl)cc2)CCN(Cc2c[nH]c3ccccc23)CC1 | t
c1ccc2c(c1)OC[C@@H](C1=NCCN1)O2 | f

Query block: // param item: "N[C@H](C(=O)O)c1cc(=O)[nH]o1" ; yields the recorded call
Result block: f

Query block: Try this compound next: "NC[C@H](CP(=O)(O)O)c1ccc(Cl)cc1"
Result block: f
